Molecular target: CSF1R kinase (recombinant N-terminal GST-CSF1R, residues L534-C972) (Homo sapiens)
Construct: Recombinant N-terminal GST-CSF1R (CSF1R residues L534-C972) containing the CSFIR kinase domain
Sequence (P07333 534-972): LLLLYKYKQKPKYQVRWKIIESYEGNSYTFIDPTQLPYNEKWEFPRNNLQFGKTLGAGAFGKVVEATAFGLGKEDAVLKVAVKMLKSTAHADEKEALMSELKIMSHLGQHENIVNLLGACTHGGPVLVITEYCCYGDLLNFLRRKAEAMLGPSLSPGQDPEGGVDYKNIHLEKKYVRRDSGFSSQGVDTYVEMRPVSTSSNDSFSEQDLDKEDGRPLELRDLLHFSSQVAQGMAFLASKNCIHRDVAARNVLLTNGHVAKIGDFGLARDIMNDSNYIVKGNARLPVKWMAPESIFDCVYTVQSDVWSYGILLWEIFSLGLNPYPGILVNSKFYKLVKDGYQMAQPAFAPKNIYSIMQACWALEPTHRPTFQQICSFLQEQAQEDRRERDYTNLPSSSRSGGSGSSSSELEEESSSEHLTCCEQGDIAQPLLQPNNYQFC
Assay: CSF1R Kinase-Glo assay
Conditions: 40 μM ATP, 30° C. 180 min, read-out: Enzymatic Assay CSF1R enzyme IC50
Experimental: A study was conducted to test certain compounds described in EXAMPLE 1 in inhibiting CSF1R kinase activity. Activity of CSF1R kinase was determined using a CSF1R Kinase-Glo assay. […] A 70-μL aliquot of each reaction mixture was transferred to a black microtiter plate and luminescence was measured on Wallac Vector 1420 multilabel counter (PerkinElmer, Shelton, CT, USA). […]
pIC50: −log10 of the molar value.
pIC50 listing for selected molecules.

Below: 2 molecules and their reported pIC50.
Problem: Could you share which pIC50 value was measured for CN(C)c1ccc2c(Oc3ccc(NC(=O)NCc4ccc(C(F)(F)F)nc4)cc3)c(C#N)cnc2c1 ?
Result: < 6.00

Problem: What do you get for CN(C)c1ccc2c(Oc3ccc(NC(=O)Nc4ccccc4Cl)cc3)ncnc2c1 ?
Result: > 7.70

***
Problem: Could you share which pIC50 value was measured for CN(C)c1ccc2c(Oc3ccc(NC(=O)Nc4cccc5ccccc45)cc3)ncnc2c1 ?
Result: 6.00 to 7.00
